Origin of measurements: PubChem BioAssay AID2060510

System: 439559-082-T-J2-PDC spheroids viability;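 also: spheroids exposed to the agents for 7 days before readout; percent of luminescence signal in DMSO vehicle wells taken as 100% viability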
Assay: Anticancer human tumor 439559-082-T-J2-PDC patient-derived colon adenocarcinoma cell line growth inhibition [GQUAD]
Conditions: second compound 10 µM; first compound 10 µM; stronger effect = lower value
This section presents molecules with their documented viability, T/C values.
Report only the number, with the unit % understood.

COc1ccc([C@@H](O)c2cc(-c3ncnc4cc(N5CCOCC5)ccc34)c(F)cc2Cl)nn1 + CN(C)c1ccc(Nc2c3ccc(NC(=O)CCN4CCCC4)cc3nc3cc(NC(=O)CCN4CCCC4)ccc23)cc1
73.4
CC1COCCN1c1cc(C2(O)CC3CCC(C2)O3)c2cnn(-c3ccn[nH]3)c2n1 (stereo not given) + Cc1cnc(CNC(=O)c2c(=O)c3ccc(N4CCCN(C)CC4)nc3n3c2sc2ccccc23)cn1
21.2
CC1COCCN1c1cc(C2(S(C)(=N)=O)CC2)nc(-c2ccnc3[nH]ccc23)n1 (stereo not given) + Cc1[nH]c2ccc(F)cc2c1-c1nc2c3cccnc3c3ncccc3c2[nH]1
64.3
CC1COCCN1c1cc(C2(O)CC3CCC(C2)O3)c2cnn(-c3ccn[nH]3)c2n1 (stereo not given) + CN(C)c1ccc(Nc2c3ccc(NC(=O)CCN4CCCC4)cc3nc3cc(NC(=O)CCN4CCCC4)ccc23)cc1
25.4

Proceeding to the next molecule to report its viability, T/C.
Would you please give the reported viability, T/C of COc1ncnc(C2CC2)c1-c1ncc2cnn(Cc3ccc(-c4nc(C(F)(F)F)cn4C(C)C)cc3)c2n1 + CN(C)c1ccc(Nc2c3ccc(NC(=O)CCN4CCCC4)cc3nc3cc(NC(=O)CCN4CCCC4)ccc23)cc1 with 439559-082-T-J2-PDC spheroids viability?
92.6
